# test protocol: activity coefficient (dimensionless); of the first substance listed, at infinite dilution; xn = mol fraction of the nth substance listed
# setup conditions: 318.15 K; 101 kPa; Liquid; Chromatography; x1 = 0
measurement name: activity coefficient

Worked examples follow.
>>> quantitative_readout("C1CCCCC1 [cyclohexane] + CCCCCC[n+]1ccc2ccccc2c1.N#C[S-]")
14.2
>>> quantitative_readout("CCC(C)(C)C [2,2-dimethylbutane] + CCCCCC[n+]1ccc2ccccc2c1.N#C[S-]")
72.2
>>> quantitative_readout("C1=CCCCC1 [cyclohexene] + CCCCCC[n+]1ccc2ccccc2c1.N#C[S-]")
6.9
>>> quantitative_readout("C#CCCCCC [1-heptyne] + CCCCCC[n+]1ccc2ccccc2c1.N#C[S-]")
4.85
>>> quantitative_readout("C=CCCCCCCCC [1-decene] + CCCCCC[n+]1ccc2ccccc2c1.N#C[S-]")
48.1

A = CCCOCCC [dipropyl ether] + CCCCCC[n+]1ccc2ccccc2c1.N#C[S-]
B = COC(C)(C)C [2-methoxy-2-methylpropane] + CCCCCC[n+]1ccc2ccccc2c1.N#C[S-]
Request: Consider A and B . Which of these has its activity coefficient at a higher number? Answer = label.
Response: A

P = CCCCCC [hexane] + CCCCCC[n+]1ccc2ccccc2c1.N#C[S-]
Q = CC(C)OC(C)C [diisopropyl ether] + CCCCCC[n+]1ccc2ccccc2c1.N#C[S-]
Request: # returns the entry with the larger activity coefficient; inputs P and Q Select an item and report its label.
Response: P
(P: 40.5, Q: 21.2)
